Please go through the items and note down their excess molar enthalpy.
# Test name: excess molar enthalpy (molar enthalpy of mixing); xn = mol fraction of the nth substance listed
# Details: 298.15 K; 5000 kPa; Liquid; Flow calorimetry; x1 = 0.349
Return type: number; implicit unit kJ/mol.

Asked: Consider the compound COC(C)=O [methyl ethanoate] + CC(C)O and give its measured excess molar enthalpy.
Given back: 1.4

Asked: Consider the compound COC(C)=O [methyl ethanoate] + CCCO and give its measured excess molar enthalpy.
Given back: 1.41

Asked: Consider the compound COC(C)=O [methyl ethanoate] + CCCCCO and give its measured excess molar enthalpy.
Given back: 1.57

Asked: Consider the compound COC(C)=O [methyl ethanoate] + CCCCO and give its measured excess molar enthalpy.
Given back: 1.44
